Test system: Hepatitis C virus
Experiment: Antiviral activity against HCV infected human Huh7 replicon cells treated for 48 hrs with drug-induced mixed donor human PBMC supernatants assessed as viral levels by luciferase assay
Type: functional, organism-based, Hepacivirus hominis
value-kind: EC50 (nM)
Record the value in nM, omitting the unit from your answer.

Query string: Return reported EC50. Input compound: CCOCc1nc2c(N)nc3ccccc3c2n1CC(C)(C)O [RESIQUIMOD]
Result string: 24

----------
Here the recorded Activity is given for each entry.
Tested on: PBMC
Test: Toxic induction of IL6 level in human PBMC assessed as drug level causing maximal cytokine induction after 24 hrs relative to control
Format: toxicity, cell-based
Residues, ends and D or L forms follow the SMILES beside them. *: point of attachment. X1 = CCCCCCCCCCCCCCCC(=O)OCC(C*)OC(=O)CCCCCCCCCCCCCCC; Palmitoyl = CCCCCCCCCCCCCCCC(=O)*
Record the value in µM, omitting the unit from your answer.

compound: CCCCCCCCCCCCCCCC(=O)N[C@@H](CSCC(COC(=O)CCCCCCCCCCCCCCC)OC(=O)CCCCCCCCCCCCCCC)C(=O)N[C@@H](CO)C(=O)N[C@@H](CCCCN)C(=O)N[C@@H](CCCCN)C(=O)N[C@@H](CCCCN)C(=O)N[C@@H](CCCCN)C(=O)O (stereo not given in full) (Palmitoyl-C(X1)SKKKK-OH)
Activity (µM): 1
//
compound: CCOCc1nc2c(N)nc3ccccc3c2n1CC(C)(C)O
Activity (µM): 1
//
compound: CCCc1nc2c(N)nc3ccccc3c2s1
Activity (µM): 3.3

Next:
Query string: Return reported Activity. Input compound: `COCCOc1nc(N)c2[nH]c(=O)n(Cc3ccccc3)c2n1`
Result string: 1
